Target: human LPAR1 (Homo sapiens, UniProt Q92633)
Construct: expressed in transfected cells
Sequence (Q92633 whole entry): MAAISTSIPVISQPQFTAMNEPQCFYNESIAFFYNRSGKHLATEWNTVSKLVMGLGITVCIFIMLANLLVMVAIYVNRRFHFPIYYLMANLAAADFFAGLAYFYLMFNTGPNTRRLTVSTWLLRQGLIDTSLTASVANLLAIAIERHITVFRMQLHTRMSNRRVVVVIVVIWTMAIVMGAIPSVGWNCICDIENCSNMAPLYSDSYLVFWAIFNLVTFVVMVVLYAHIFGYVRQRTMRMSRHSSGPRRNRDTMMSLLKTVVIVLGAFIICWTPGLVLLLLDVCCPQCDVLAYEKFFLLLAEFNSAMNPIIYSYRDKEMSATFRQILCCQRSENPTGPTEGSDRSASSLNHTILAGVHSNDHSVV
Test: Test Example 1: antagonism against response of LPA-induced increase in intracellular Ca2+ concentration in RH7777 cells stably expressing human LPAR1
Format: cell-based
Conditions: RH7777 cells stably expressing human LPAR1; Fluo-4 fluorescence, FDSS6000; read-out: IC50 value (concentration producing 50% antagonism against response of LPA-induced increase in intracellular Ca2+ concentration) (converted)
Experimental: (1) Preparation of RH7777 cells stably expressing human LPAR1 The human LPAR1 expression vector was transfected into RH7777 cells to acquire human LPAR1 expressing cells. […] The cells were seeded onto the Poly-D-Lysine 96 well black plate and incubated overnight. […] In FDSS6000 (Hamamatsu Photonics K.K.), LPAs were added, and the change in intracellular Ca^2+ concentration was detected using the fluorescence value of a wavelength of 540 nm by an excitation wavelength of 480 nm as an indicator. […]
measured metric: IC50 (nM)

CCOc1cc([C@@H](C)N(CCOCc2ccccc2)C(=O)N[C@]2(C(=O)O)C[C@@H](OC)C2)c(Cl)c(OCC)c1C(C)=O    1.62
CCOc1cc(C(COC)N(CCCCc2ccccc2)C(=O)NC2(C(=O)O)CC(F)(F)C2)cc(OCC)c1C (centres unmarked)    114
CCOc1cc([C@@H](C)N(CCO[C@@H](C)c2ccccc2)C(=O)NC2(C(=O)O)CC(F)(F)C2)cc(OCC)c1C(C)=O    2.52
CCOc1cc(C(C)N(CCO[C@@H](C)c2ccccc2)C(=O)N[C@]2(C(=O)O)C[C@@H](OCC)C2)c(Cl)c(OCC)c1C(C)=O (some centres unmarked)    1.99
CCOc1c(C(C)=O)ccc([C@@H](C)N(CCO[C@H](C)c2ccccc2)C(=O)NC2(C(=O)O)CC(OC)C2)c1C (some centres unmarked)    3.68
O=C(NC1(C(=O)O)CC(F)(F)C1)N(CCCCc1ccccc1)C1COc2c(Cl)cc(Cl)cc21 (centres unmarked)    5.59

[P] CCOc1cc(OCC)cc(C(C)N(CCCCc2ccccc2)C(=O)NC2(C(=O)O)CCCC2)c1 (centres unmarked)
[Q] CCOc1cc([C@@H](C)N(CCO[C@@H](C)c2ccccc2)C(=O)N[C@]2(C(=O)O)C[C@H](OCC)C2)c(Cl)c(OCC)c1C(C)=O
Problem: Would you mind telling me which has the lower recorded IC50 between P and Q ? Pick one; state its label.
Solution: Q
(Q: 3.84 nM, P: 35.4 nM)

---

target: human LPAR1 (Homo sapiens, UniProt Q92633); construct: expressed in transfected cells; experiment: Test Example 1: antagonism against response of LPA-induced increase in intracellular Ca2+ concentration in RH7777 cells stably expressing human LPAR1; type: cell-based; settings: RH7777 cells stably expressing human LPAR1; Fluo-4 fluorescence, FDSS6000; read-out: IC50 value (concentration producing 50% antagonism against response of LPA-induced increase in intracellular Ca2+ concentration) (converted)
measured metric: IC50 (nM)

Use the examples below as a reference point.
CCOc1cc([C@@H](C)N(CCCCc2ccccc2)C(=O)NC2(C(=O)O)CC(O)C2)cc(OCC)c1C (some centres unmarked)    8.72
CCOc1cc(C(C)N(CCCCc2ccccc2)C(=O)NC2(C(=O)O)CC(F)(F)C2)cc(OCC)c1C1(O)CC1 (centres unmarked) [Example 1-38]    5.4
CCOc1cc([C@@H](C)N(CCO[C@@H](C)c2ccccc2)C(=O)N[C@]2(C(=O)O)C[C@@H](OCC)C2)c(Cl)c(OCC)c1C(C)O (single isomer, unassigned) [Example 5-61]    3.17
CCOc1cc(C(C)N(CCOCc2ccccc2)C(=O)NC2(C(=O)O)CC(OC)C2)c(Cl)c(OCC)c1C1CC1 (centres unmarked) [Example 5-200]    0.548
COc1cc(C(C)N(CCO[C@@H](C)c2ccccc2)C(=O)NC2(C(=O)O)CCC2)cc(OC)c1C1CC1 (some centres unmarked)    8.18

[A] CCOc1cc([C@@H](C)N(CCC(F)(F)Cc2ccccc2)C(=O)NC2(C(=O)O)CC(OCC)C2)cc(OCC)c1C(C)=O (some centres unmarked) [Example 4-93]
[B] CCOc1cc(C(C)N(CCCCc2ccccc2)C(=O)NC2(C(=O)O)CC(F)(F)C2)cc2c1cnn2CC (centres unmarked)
[C] CCOc1cc([C@@H](C)N(CCCCc2ccccc2)C(=O)NC2(C(=O)O)CCC2)cc(OCC)c1C(C)O (single isomer, unassigned) [Example 1-22]
[D] CCOc1cc(C(C)N(CCCCc2ccccc2)C(=O)NC2CCC(C(=O)O)C2)cc(OCC)c1C(C)=O (centres unmarked)
[E] CCOc1cc(C(C)N(CCCCc2ccccc2)C(=O)NC2(C(=O)O)CC(F)(F)C2)cc2c1CCO2 (centres unmarked)
Problem: List items by IC50 in falling order. # respond with the labels, arranged in the requested order
Solution: E, A, B, D, C
(E: 23.1 nM, A: 10.1 nM, B: 5.6 nM, D: 3.09 nM, C: 1.47 nM)

Hey, just so you know, these numbers are from patent US12338203B2.
